# System name: Neuropeptide Y receptor type 1 (Homo sapiens) (UniProt P25929)
# Sequence (P25929 whole entry, looked up): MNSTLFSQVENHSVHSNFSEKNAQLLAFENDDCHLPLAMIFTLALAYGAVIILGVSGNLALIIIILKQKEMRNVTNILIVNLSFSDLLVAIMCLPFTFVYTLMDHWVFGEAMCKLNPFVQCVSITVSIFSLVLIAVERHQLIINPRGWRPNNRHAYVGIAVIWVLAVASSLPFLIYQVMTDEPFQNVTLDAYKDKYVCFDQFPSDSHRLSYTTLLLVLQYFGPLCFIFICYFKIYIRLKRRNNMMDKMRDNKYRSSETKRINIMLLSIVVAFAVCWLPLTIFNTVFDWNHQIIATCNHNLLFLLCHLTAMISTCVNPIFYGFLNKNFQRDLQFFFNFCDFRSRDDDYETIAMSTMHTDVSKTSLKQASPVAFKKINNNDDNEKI
# Assay procedure: blockers of human neuropeptide Y Y1 receptor – cell-based, primary screen (AID 1040);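 also: 0% = DMSO wells given NPY plus isoproterenol and 100% = isoproterenol alone without NPY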
# Condition info: HEK293-CNG Y1 cells, membrane potential fluorescence; at 3.6 µM; active compounds read high; NPY at EC95, then isoproterenol
About 2,000 (1%) of roughly 200,000 compounds were called active. The sample as a whole holds a higher share of actives than the screen did.
The reader will find reported inhibition values listed item by item below.
Provide the reading as a plain figure in %.

> print(dat)
                                   compound  measured.value
1  CCCCn1nc(C(=O)N2CCc3ccccc32)c2ccccc2c1=O            28.5
2  O=C(CCCn1c(SCC(=O)c2ccc(F)cc2)nc2ccccc2c1=O)NCc1ccco1             3.6
3         NNC(=O)c1cnn(-c2ccccc2)c1C(F)(F)F            3.72

Exercise: Please report inhibition for the following compound: "COc1ccc(CCNc2nc(-c3cccc(NC(C)=O)c3)cs2)cc1OC"
Solution: 6.08

Exercise: Return inhibition for the following compound: "CCCS(=O)(=O)N1CCC(CCOc2ccccc2)(C(=O)OCC)CC1"
Solution: 6.41

Exercise: Determine from records and report inhibition for "Cc1occc1C(=O)N1CCCc2ccccc21"
Solution: 1.99

Exercise: Provide inhibition value for the following compound: "O=C(Nc1ccncc1)c1cc(-c2ccccn2)nc2ccc(Br)cc12"
Solution: -2.88

Exercise: Answer with the recorded inhibition of "CC(C)C(=O)Nc1oc(-c2ccccc2)cc1C#N" only.
Solution: 3.99

Exercise: Return value of inhibition for input "O=C(NC(=S)Nc1cccc(-c2ccc(CO)o2)c1)c1cccs1" , no commentary.
Solution: 4.06

Exercise: Dear colleague, please send me the reported inhibition for "O=C(c1cc(-c2ccc(O)cc2)on1)N1CCCc2ccccc21" when you can.
Solution: 25.5

The reported numbers originate from PubChem BioAssay AID1040.
